For each entry below, report its IC50 value.
# Test system: embryonic teratocarcinoma F9 cells
# Experiment Description: Test of differentiation of embryonic teratocarcinoma F9 cells, antagonism of an agonist retinoid (secretion of the activator of plasminogen, morphology)
# Format: cell-based, mice
# Cond: Mus musculus, F9, 72 h; inhibition by 50% of effect of agonist compound A (10 nM) on secretion of the activator of plasminogen; 3 days incubation; read-out: Antagonist against compound A (10 nM) Test of differentiation of F9 cells IC50
Give bare numbers, in nM.

| Sample Smiles | IC50, nM |
| --- | --- |
| O=C(O)c1ccc(-c2ccc3cc(OCc4ccccc4)c(C45CC6CC(CC(C6)C4)C5)cc3c2)cc1 | 180 |
| O=C(O)c1ccc(-c2ccc3cc(C(=O)OCc4ccccc4)c(C45CC6CC(CC(C6)C4)C5)cc3c2)cc1 | 500 |
| O=C(O)c1ccc(-c2ccc3cc(OCc4ccccc4)c(C45CC6CC(CC(C6)C4)C5)cc3c2)cc1O | 5 |
| O=C(O)c1ccc(-c2ccc3cc(OCCCCCCCCO)c(C45CC6CC(CC(C6)C4)C5)cc3c2)cc1 | 250 |
| COCCOCOc1cc2ccc(-c3ccc(C(=O)O)cc3)cc2cc1C12CC3CC(CC(C3)C1)C2 | 2 |

Prompt line: Could you please provide reported IC50 for `COCCCCCCOc1cc2ccc(-c3ccc(C(=O)O)cc3)cc2cc1C12CC3CC(CC(C3)C1)C2` ? Thanks!
Response line: 450

Entry source: patent US5952382A
